- measurement-notes: small-molecule microarray binders of probe aShh, primary screen, biochemical, biotinylated probe, 635/667 nm fluorescence (AID 1114);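 also: probe is biotin-labelled aShh protein from a stem cell growth factor screen; measures binding of labelled protein to compounds printed on the slide; score merges feature fluorescence at 667 nm with signal-to-noise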
- reported-conditions: higher = more signal
result-type: composite z-score
Write no unit; give the number alone.

Prompt: For C[C@H]1CC[C@H]2C(=O)N[C@H](Cc3ccccc3)C(=O)N2[C@@H]1c1ccccc1 , what is its reported composite z-score?
Response: 0.37

Prompt: Now consider CC(C)=CCCC(C)=CCON=C1C[C@@H](O)[C@@H](O)[C@@H]2[C@@H]3C(=O)N(Cc4ccc5c(c4)OCO5)C(=O)[C@@H]3CC[C@@H]12 .
Response: -0.0396

Prompt: Now consider COCCNC(=O)OCC1CCCC2(CC(OC(=O)NCc3cccc4ccccc34)CC(CCC(=O)N[C@@H](C)C(=O)OC)O2)O1 (some centres not stated) .
Response: -0.0006

Prompt: Now consider C[C@@H]1CC[C@H]2C(=O)O[C@@H](CN=[N+]=[N-])CN2[C@H]1c1ccc(Br)cc1 .
Response: -0.32

Prompt: Now consider CO[C@H]1C[C@@H]2C[C@H](O)CC(CC(=O)O[C@@H](C=CCC(C)C)C[C@@H]3CC[C@H](C)[C@@H](C1)O3)O2 .
Response: 0.0815

Prompt: Now consider CC(=O)OC[C@H]1O[C@@H](ON=C(C)CCC(=O)OC[C@H]2O[C@H](C#Cc3ccccc3)C=C[C@@H]2Oc2ccc(C)cc2)[C@H](OC(C)=O)[C@@H](OC(C)=O)[C@@H]1OC(C)=O .
Response: -0.0769

Prompt: Now consider CO[C@H]1COC(=O)CCC[C@H](C)[C@@H](OC)COC(=O)CC=C[C@@H]1C .
Response: -0.0248

----------
- study-system: Left-right determination factor 2 (Homo sapiens) (UniProt O00292)
- Sequence (O00292 whole entry, looked up): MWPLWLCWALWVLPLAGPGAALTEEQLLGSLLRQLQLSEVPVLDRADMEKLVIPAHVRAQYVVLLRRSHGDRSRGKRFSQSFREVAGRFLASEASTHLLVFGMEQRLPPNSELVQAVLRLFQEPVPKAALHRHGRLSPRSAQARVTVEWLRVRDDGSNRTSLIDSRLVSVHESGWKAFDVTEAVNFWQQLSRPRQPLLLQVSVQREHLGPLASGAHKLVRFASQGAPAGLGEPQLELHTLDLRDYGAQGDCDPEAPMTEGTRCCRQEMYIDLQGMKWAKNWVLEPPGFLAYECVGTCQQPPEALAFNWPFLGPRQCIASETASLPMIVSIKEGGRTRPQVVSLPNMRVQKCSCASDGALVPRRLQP
- measurement-notes: LEFTY2 binders on small-molecule microarrays, primary screen, biochemical, small-molecule microarray, 635 nm fluorescence scan (AID 1110)
- reported-conditions: LEFTY2 binding, higher = more signal
Returns the class for an entry based on its composite z-score. Class ranges: low-valued (below 0.1), mid-valued (0.1 to below 0.5), high-valued (0.5 or more)

The following molecules have reported results that may help.
CO[C@H]1COC(=O)CC=C[C@@H](C)COC(=O)[C@H]2CCCN2C(=O)CC=C[C@H]1C	high-valued
COc1ccc(OC[C@@H](CO)OC)cc1	mid-valued
CCN1C(=O)[C@H]2[C@H]3[C@H](O)[C@H](O)CC(=NO[C@H](C)c4cn([C@@H]5COC[C@H]5O)nn4)[C@@H]3CC[C@H]2C1=O	high-valued
CON=C(C)CCN1CCc2nc(-c3ccccc3)c(-c3ccccc3)cc2C1	low-valued
C=CC[C@@H]1C=C[C@H](ON=C2C[C@@H](O)[C@@H](O)[C@@H]3[C@@H]4C(=O)N(CC)C(=O)[C@@H]4CC[C@@H]23)[C@@H](CO)O1	mid-valued
CCOC(=O)[C@H](CC(C)C)NC(=O)CCC1CC(OC(=O)NCc2ccc3c(c2)OCO3)CC2(CCCC(COC(=O)NCCOC)O2)O1 (stereo not given in full)	mid-valued

Prompt: Category lookup for the molecule CCOC(=O)[C@H](Cc1ccccc1)NC(=O)CCC1CC(OC(=O)NCc2cccc3ccccc23)CC2(CCCC(COC(=O)NCCOc3ccccc3)O2)O1 (stereo not given in full)
Response: high-valued

Prompt: Now consider COc1ccc(COC(=O)NN=C2C[C@@H](O)[C@@H](O)[C@@H]3[C@@H]4C(=O)N([C@@H](C)c5ccccc5)C(=O)[C@@H]4CC[C@H]23)cc1 .
Response: low-valued

Prompt: Now consider COc1ccc(COC(=O)NN=C2C[C@@H](O)[C@@H](O)[C@@H]3[C@@H]4C(=O)N(c5cccc(Oc6ccccc6)c5)C(=O)[C@@H]4CC[C@H]23)cc1 .
Response: low-valued

Prompt: Now consider CC(CCC(=O)OC[C@H]1O[C@H](C#Cc2ccccc2)C=C[C@@H]1Oc1ccc(C)cc1)=NOC(C)CN1CCCCc2nc(C)c(C)cc21 (stereo not given in full) .
Response: low-valued

Prompt: Now consider COC(=O)C1=C(C)N(Cc2ccccc2)C2=C3C(=O)OCC[C@@H]3[C@@](O)(C(=O)OC)C(=O)N2[C@@H]1c1ccccc1 .
Response: high-valued

Prompt: Now consider COc1ccc(COC(=O)NN=C2C[C@@H](O)[C@@H](O)[C@@H]3[C@@H]4C(=O)N(Cc5ccccc5)C(=O)[C@@H]4CC[C@@H]23)cc1 .
Response: mid-valued

Prompt: Now consider CCc1cc2c(nc1CC)CCN(CCC(C)=NOCC[C@@H]1C=C[C@H](OC(C)=O)[C@@H](COC(C)=O)O1)C2 .
Response: high-valued

Prompt: Now consider COC(=O)[C@H](C)NC(=O)CCC1CC(OC(=O)NCc2cccc3ccccc23)CC2(CCCC(COC(=O)NCCOc3ccccc3)O2)O1 (stereo not given in full) .
Response: mid-valued
